All figures here come from patent US20120077813A1.

Assay: CaCo-2 A to B permeability assay Alt 2 (pH 7.4)
Type: in vitro ADME
Settings: human, Alt 2: apical to basolateral, pH 7.4, 10 μM, mean value
Each entry below carries its recorded Papp A→B at 60 min, 10 µM.
Give the number; nm/s is assumed, so skip it.

Endpoint output: Papp A→B at 60 min, 10 µM of Cc1ncc(-c2nc(Nc3cc(F)c(CN4CCOC[C@@H]4C)cc3F)ncc2F)n1C1CCOCC1 . Value? 440

Give the measured Papp A→B at 60 min, 10 µM of Cc1ncc(-c2nc(Nc3cc(F)c(CN4[C@@H](C)COC[C@@H]4C)cc3F)ncc2F)n1C1CCOCC1 . 400

----------
Molecular target: recombinant human GSK3β (Homo sapiens)
Construct: purchased Dundee University, UK
Assay: ATP competition in scintillation proximity GSK3β assay
Assay type: biochemical
Details: ratio of CDK2 Ki to GSK3β Ki
Counter-ions that a name gives are not always drawn.
So basically: is Selectivity GSK3β vs CDK2 under 30? Then yes. Not under? Then no.

Consider the compound Cc1ncc(-c2nc(Nc3ccc(CN4CCOCC4)cc3F)ncc2F)n1C1CCOCC1 . Is its Selectivity GSK3β vs CDK2 strictly less than 30? yes

hey, is Selectivity GSK3β vs CDK2 for Cc1ncc(-c2nc(Nc3ccc(CN4CCOCC4)cc3)ncc2F)n1C1CCOCC1 [Reference example, reference compound] lower than 30 or not? yes

Lab log: compare recorded Selectivity GSK3β vs CDK2 with 30; is it strictly lower for Cc1ncc(-c2nc(Nc3ccc(CN4CCOC[C@@H]4C)cc3F)ncc2F)n1C1CCOCC1 [Ex 3, hydrochloride] ? no

Determine whether this compound shows Selectivity GSK3β vs CDK2 lower than 30 (ties excluded): Cc1ncc(-c2nc(Nc3ccc(CN4CCOC[C@H]4C)cc3F)ncc2F)n1C1CCOCC1 [Ex 2, hydrochloride] no

----------
Reported Papp A→B at 90 min, 10 µM is given for each of the following molecules.
Experiment: CaCo-2 permeability assay Alt 1 (pH gradient 6.5/7.4)
Assay type: in vitro ADME
Details: human, Alt 1: apical to basolateral, pH 6.5 apically, pH 7.4 basolaterally, typically 10 μM, mean value

{"molecule": "Cc1ncc(-c2nc(Nc3cc(F)c(CN4CCOCC4)cc3F)ncc2F)n1C1CCOCC1 [Ex 5]", "assay-value": "450 nm/s"}
{"molecule": "Cc1ncc(-c2nc(Nc3ccc(CN4CCOCC4)cc3F)ncc2F)n1C1CCOCC1 [Ex 1]", "assay-value": "360 nm/s"}

Now consider a different molecule.
I am curious: what Papp A→B at 90 min, 10 µM value has been reported for Cc1ncc(-c2nc(Nc3ccc(CN4CCOCC4)cc3)ncc2F)n1C1CCOCC1 [Reference example, reference compound] ? 260 nm/s

----------
Some compounds, each annotated with its measured Ki.
Biological target: recombinant human GSK3β (Homo sapiens, UniProt P49841)
Sequence (P49841 whole entry): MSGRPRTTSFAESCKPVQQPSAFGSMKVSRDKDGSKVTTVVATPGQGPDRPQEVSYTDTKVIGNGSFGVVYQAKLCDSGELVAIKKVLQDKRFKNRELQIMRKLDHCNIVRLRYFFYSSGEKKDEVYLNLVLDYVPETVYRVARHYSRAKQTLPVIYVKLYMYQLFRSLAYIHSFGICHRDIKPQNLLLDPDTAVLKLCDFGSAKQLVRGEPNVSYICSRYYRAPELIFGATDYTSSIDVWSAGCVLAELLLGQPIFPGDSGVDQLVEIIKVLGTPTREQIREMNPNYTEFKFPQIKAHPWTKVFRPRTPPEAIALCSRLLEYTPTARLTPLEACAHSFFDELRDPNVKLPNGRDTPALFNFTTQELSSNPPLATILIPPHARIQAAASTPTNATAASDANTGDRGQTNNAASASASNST
Experiment: ATP competition in scintillation proximity GSK3β assay
Conditions: mean value; Ki calculated with Km of ATP 20 μM
Where a name gives a salt, the structure may show the parent alone.
Hi! Could you send only the number? It should be in nM, unit omitted.

Requested field: Ki. Item: Cc1ncc(-c2nc(Nc3ccc(CN4CCOCC4)cc3)ncc2F)n1C1CCOCC1 [Reference example, reference compound] 8.1

// query Ki value for entry Cc1ncc(-c2nc(Nc3ccc(CN4CCOCC4)cc3F)ncc2F)n1C1CCOCC1 15

Which Ki value is on record for Cc1ncc(-c2nc(Nc3ccc(CN4CCOC[C@H]4C)cc3F)ncc2F)n1C1CCOCC1 [Ex 2, hydrochloride] ? 5

Reported Ki, compound Cc1ncc(-c2nc(Nc3cc(F)c(CN4CCOCC4)cc3F)ncc2F)n1C1CCOCC1 [Ex 5] : ____ 4.9

// Ki lookup, key: Cc1ncc(-c2nc(Nc3ccc(CN4[C@@H](C)COC[C@@H]4C)cc3F)ncc2F)n1C1CCOCC1 [Ex 4, hydrochloride] 11

I have this compound here, Cc1ncc(-c2nc(Nc3cc(F)c(CN4CCOCC4)cc3F)ncc2F)n1C1CCOCC1 [Ex 6, hydrochloride] , and I need its recorded Ki. 4.9

# lookup: Ki of Cc1ncc(-c2nc(Nc3cc(F)c(CN4[C@@H](C)COC[C@@H]4C)cc3F)ncc2F)n1C1CCOCC1 7.7

Field request: Ki | item: Cc1ncc(-c2nc(Nc3ccc(CN4CCOC[C@@H]4C)cc3F)ncc2F)n1C1CCOCC1 [Ex 3, hydrochloride] 30

Suppose we examine the compound Cc1ncc(-c2nc(Nc3cc(F)c(CN4CCOC[C@@H]4C)cc3F)ncc2F)n1C1CCOCC1 ; what Ki value has been reported? 11

----------
Listed next: entries and their corresponding pKi.
Target: Cdk2/cyclin E (Homo sapiens)
Assay: ATP competition in scintillation proximity Cdk2 assay
Settings: mean value; Ki calculated with Km of ATP 0.5 μM
Structures can show the parent of a compound that is named as a salt.
On this scale, pKi is minus log10 of a concentration expressed in M (mol/L).

{"compound": "Cc1ncc(-c2nc(Nc3ccc(CN4[C@@H](C)COC[C@@H]4C)cc3F)ncc2F)n1C1CCOCC1 [Ex 4, hydrochloride]", "test-target": "Cdk2/cyclin E (Homo sapiens)", "reported-property": "pKi", "assay-value": 6.50}
{"compound": "Cc1ncc(-c2nc(Nc3ccc(CN4CCOCC4)cc3)ncc2F)n1C1CCOCC1 [Reference example, reference compound]", "test-target": "Cdk2/cyclin E (Homo sapiens)", "reported-property": "pKi", "assay-value": 6.96}
{"compound": "Cc1ncc(-c2nc(Nc3cc(F)c(CN4CCOCC4)cc3F)ncc2F)n1C1CCOCC1 [Ex 5]", "test-target": "Cdk2/cyclin E (Homo sapiens)", "reported-property": "pKi", "assay-value": 6.90}
{"compound": "Cc1ncc(-c2nc(Nc3cc(F)c(CN4[C@@H](C)COC[C@@H]4C)cc3F)ncc2F)n1C1CCOCC1", "test-target": "Cdk2/cyclin E (Homo sapiens)", "reported-property": "pKi", "assay-value": 6.65}
{"compound": "Cc1ncc(-c2nc(Nc3cc(F)c(CN4CCOCC4)cc3F)ncc2F)n1C1CCOCC1 [Ex 6, hydrochloride]", "test-target": "Cdk2/cyclin E (Homo sapiens)", "reported-property": "pKi", "assay-value": 6.88}
{"compound": "Cc1ncc(-c2nc(Nc3cc(F)c(CN4CCOC[C@@H]4C)cc3F)ncc2F)n1C1CCOCC1", "test-target": "Cdk2/cyclin E (Homo sapiens)", "reported-property": "pKi", "assay-value": 6.76}
{"compound": "Cc1ncc(-c2nc(Nc3ccc(CN4CCOC[C@H]4C)cc3F)ncc2F)n1C1CCOCC1 [Ex 2, hydrochloride]", "test-target": "Cdk2/cyclin E (Homo sapiens)", "reported-property": "pKi", "assay-value": 6.54}
{"compound": "Cc1ncc(-c2nc(Nc3ccc(CN4CCOCC4)cc3F)ncc2F)n1C1CCOCC1", "test-target": "Cdk2/cyclin E (Homo sapiens)", "reported-property": "pKi", "assay-value": 6.51}

// moving on: another record for pKi
Return reported pKi; argument: Cc1ncc(-c2nc(Nc3ccc(CN4CCOC[C@@H]4C)cc3F)ncc2F)n1C1CCOCC1 [Ex 3, hydrochloride] 6.03

----------
Experiment: CaCo-2 A to B permeability assay Alt 2 (pH 7.4)
Format: in vitro ADME
Conditions: human, Alt 2: apical to basolateral, pH 7.4, 10 μM, mean value
Structures can show the parent of a compound that is named as a salt.
As shown below, each of these compounds has a reported Papp A→B at 60 min, 10 µM value.
Give a bare numeral; the unit ×10⁻⁶ cm/s is implied.

Some compounds with recorded Papp A→B at 60 min, 10 µM:
{"compound": "Cc1ncc(-c2nc(Nc3ccc(CN4CCOC[C@H]4C)cc3F)ncc2F)n1C1CCOCC1 [Ex 2, hydrochloride]", "unit-info": "×10⁻⁶ cm/s", "assay-value": 39}
{"compound": "Cc1ncc(-c2nc(Nc3ccc(CN4CCOC[C@@H]4C)cc3F)ncc2F)n1C1CCOCC1 [Ex 3, hydrochloride]", "unit-info": "×10⁻⁶ cm/s", "assay-value": 56}

// moving on: another record for Papp A→B at 60 min, 10 µM
Which Papp A→B at 60 min, 10 µM value is on record for Cc1ncc(-c2nc(Nc3ccc(CN4[C@@H](C)COC[C@@H]4C)cc3F)ncc2F)n1C1CCOCC1 [Ex 4, hydrochloride] ? 44

----------
Target: recombinant human GSK3β (Homo sapiens)
Construct: purchased Dundee University, UK
Experiment: ATP competition in scintillation proximity GSK3β assay
Assay type: biochemical
Details: ratio of CDK2 Ki to GSK3β Ki
Experimental: Determination of ATP Competition in Scintillation Proximity GSK3β Assay. The inhibition experiments were carried out in duplicate with 10 concentrations of the inhibitor in 384 well clear-bottom microtitre plates. […] After a 5 minutes centrifugation at 2000 rpm, the radioactivity was measured in a liquid scintillation counter (1450 MicroBeta Trilux, Perkin Elmer, Finland). […]
Counter-ions that a name gives are not always drawn.
Documented Selectivity GSK3β vs CDK2 across a set of compounds

{"compound": "Cc1ncc(-c2nc(Nc3cc(F)c(CN4CCOCC4)cc3F)ncc2F)n1C1CCOCC1", "Selectivity GSK3β vs CDK2": 26}
{"compound": "Cc1ncc(-c2nc(Nc3ccc(CN4[C@@H](C)COC[C@@H]4C)cc3F)ncc2F)n1C1CCOCC1 [Ex 4, hydrochloride]", "Selectivity GSK3β vs CDK2": 29}
{"compound": "Cc1ncc(-c2nc(Nc3cc(F)c(CN4[C@@H](C)COC[C@@H]4C)cc3F)ncc2F)n1C1CCOCC1", "Selectivity GSK3β vs CDK2": 29}

Entry Cc1ncc(-c2nc(Nc3cc(F)c(CN4CCOC[C@@H]4C)cc3F)ncc2F)n1C1CCOCC1 : reported Selectivity GSK3β vs CDK2 = ? 16
